Target: human TLR8 (Homo sapiens)
Construct: expressed in transfected cells; host or cells: HEK293 cells, transient transfection with TLR8 plasmid and NFκB-luc plasmid
Sequence (Q9NR97 27-1041): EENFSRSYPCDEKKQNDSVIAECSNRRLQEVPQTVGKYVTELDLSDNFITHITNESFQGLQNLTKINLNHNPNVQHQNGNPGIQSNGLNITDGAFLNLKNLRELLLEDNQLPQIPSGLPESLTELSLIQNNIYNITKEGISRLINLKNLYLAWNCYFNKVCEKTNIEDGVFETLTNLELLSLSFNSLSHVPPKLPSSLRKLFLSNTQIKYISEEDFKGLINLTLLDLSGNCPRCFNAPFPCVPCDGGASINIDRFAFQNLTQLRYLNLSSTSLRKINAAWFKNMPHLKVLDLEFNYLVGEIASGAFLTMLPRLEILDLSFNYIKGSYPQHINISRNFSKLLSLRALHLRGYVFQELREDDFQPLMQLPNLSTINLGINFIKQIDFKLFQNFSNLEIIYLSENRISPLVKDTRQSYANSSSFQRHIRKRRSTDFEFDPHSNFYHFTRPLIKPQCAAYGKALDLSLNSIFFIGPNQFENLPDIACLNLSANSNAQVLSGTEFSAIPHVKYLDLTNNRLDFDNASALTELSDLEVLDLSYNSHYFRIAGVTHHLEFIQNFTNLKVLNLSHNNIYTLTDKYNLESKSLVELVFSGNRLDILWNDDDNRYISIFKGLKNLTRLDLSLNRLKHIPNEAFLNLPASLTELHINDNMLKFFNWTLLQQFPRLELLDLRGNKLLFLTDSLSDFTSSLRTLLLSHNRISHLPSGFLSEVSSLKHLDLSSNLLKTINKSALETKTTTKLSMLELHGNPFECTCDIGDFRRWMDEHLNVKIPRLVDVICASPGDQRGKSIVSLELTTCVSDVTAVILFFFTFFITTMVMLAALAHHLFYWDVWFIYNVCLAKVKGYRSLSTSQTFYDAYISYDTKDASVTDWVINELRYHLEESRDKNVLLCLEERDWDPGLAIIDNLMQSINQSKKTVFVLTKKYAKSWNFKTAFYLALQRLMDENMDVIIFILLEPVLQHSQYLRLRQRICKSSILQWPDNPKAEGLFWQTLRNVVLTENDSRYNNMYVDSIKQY
Assay: TLR8 cellular reporter assay (HEK293, NFκB-luc)
Format: cell-based
Conditions: HEK293 cells transfected with CMV-TLR8 and NFκB-luc, 6 hours incubation; lowest effective concentration
Readout Type: TLR8 LEC

Completed entries (count: 2):
Cc1cc(CNc2nc(N)nc3ccn(Cc4ccncc4)c23)no1 [Compound 112] : >25 µM
CCCC(C)Nc1nc(N)nc2ccn(Cc3ccccc3OC)c12 (stereo not drawn) [Compound 79] : 0.94 µM

If you can, please state the reported TLR8 LEC value of Cc1cc(CNc2nc(N)nc3ccn(Cc4ncccc4F)c23)no1 [Compound 125] .
>25 µM

====

Target: human TLR7 (Homo sapiens)
Construct: expressed in transfected cells; host or cells: HEK293 cells, transient transfection with CMV-TLR7 plasmid and NFκB-luc plasmid
Assay: TLR7 cellular reporter assay (HEK293, NFκB-luc)
Format: cell-based
Settings: HEK293 cells transfected with CMV-TLR7 and NFκB-luc, 6 hours incubation; lowest effective concentration
Measured TLR7 LEC, listed per entry.

Completed entries (count: 5):
COc1ccnc(Cn2ccc3nc(N)nc(NCc4cc(C)on4)c32)c1 : 0.09 µM
CCCCNc1nc(N)nc2ccn(Cc3nccc4ccccc34)c12 : 0.1687 µM
CCC[C@@H](CCO)Nc1nc(N)nc2ccn(CC3CCCO3)c12 (stereo partly shown) : 0.10 µM
COc1ccccc1Cn1ccc2nc(N)nc(NCc3cc(C)on3)c21 : 0.002 µM
CCCCNc1nc(N)nc2ccn(CC3CCCCC3)c12 : 0.12 µM

If you can, please state the reported TLR7 LEC value of CCCC[C@@H](CCO)Nc1nc(N)nc2ccn(Cc3ccccc3OC)c12 .
0.0004 µM

Please give the result for Nc1nc(NCc2ccoc2)c2c(ccn2Cc2ccccc2)n1 too.
19.9 µM

Please give the result for CC(C)(O)CCNc1nc(N)nc2ccn(Cc3ccccn3)c12 too.
8.76 µM

Please give the result for CCCC[C@@H](CCO)Nc1nc(N)nc2ccn(CC(C)C)c12 too.
0.11 µM

Please give the result for COCCn1ccc2nc(N)nc(NCc3cc(C4CC4)on3)c21 too.
0.17 µM

Please give the result for CC(C)CNc1nc(N)nc2ccn(Cc3ccccc3)c12 too.
0.91 µM

====

Molecular target: human TLR7 (Homo sapiens, UniProt Q9NYK1)
Construct: expressed in transfected cells; host or cells: HEK293 cells, transient transfection with CMV-TLR7 plasmid and NFκB-luc plasmid
Sequence (Q9NYK1 27-1049): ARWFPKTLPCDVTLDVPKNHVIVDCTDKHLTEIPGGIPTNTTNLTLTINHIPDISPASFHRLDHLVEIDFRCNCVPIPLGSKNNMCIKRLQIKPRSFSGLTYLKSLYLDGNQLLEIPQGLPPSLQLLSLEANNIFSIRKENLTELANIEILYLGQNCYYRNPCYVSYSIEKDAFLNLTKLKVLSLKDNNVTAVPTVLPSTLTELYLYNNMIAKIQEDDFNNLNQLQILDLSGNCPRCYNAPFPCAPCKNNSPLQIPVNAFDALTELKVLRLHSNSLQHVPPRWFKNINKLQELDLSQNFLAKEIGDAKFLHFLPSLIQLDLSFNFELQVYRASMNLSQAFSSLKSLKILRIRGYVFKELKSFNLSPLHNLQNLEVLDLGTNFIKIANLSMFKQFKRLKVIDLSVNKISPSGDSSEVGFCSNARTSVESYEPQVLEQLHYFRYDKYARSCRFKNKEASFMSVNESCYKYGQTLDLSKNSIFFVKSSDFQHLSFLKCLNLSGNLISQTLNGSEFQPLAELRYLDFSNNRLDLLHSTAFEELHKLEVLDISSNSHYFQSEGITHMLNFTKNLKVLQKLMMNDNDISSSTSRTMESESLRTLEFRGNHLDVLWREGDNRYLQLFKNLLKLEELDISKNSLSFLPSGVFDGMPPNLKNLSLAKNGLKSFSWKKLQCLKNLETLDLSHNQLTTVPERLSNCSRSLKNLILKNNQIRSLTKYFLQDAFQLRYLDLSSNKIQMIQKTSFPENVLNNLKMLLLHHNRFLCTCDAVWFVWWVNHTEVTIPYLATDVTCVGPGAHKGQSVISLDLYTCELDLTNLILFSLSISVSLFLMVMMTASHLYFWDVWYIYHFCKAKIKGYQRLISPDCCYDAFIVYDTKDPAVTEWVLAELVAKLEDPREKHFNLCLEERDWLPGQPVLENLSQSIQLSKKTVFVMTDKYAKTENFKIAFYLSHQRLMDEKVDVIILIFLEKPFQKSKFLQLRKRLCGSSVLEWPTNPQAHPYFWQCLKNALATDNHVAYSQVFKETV
Assay: TLR7 cellular reporter assay (HEK293, NFκB-luc)
Assay type: cell-based
Settings: HEK293 cells transfected with CMV-TLR7 and NFκB-luc, 6 hours incubation; lowest effective concentration
Readout Type: TLR7 LEC (µM)
Give the value, in units of µM, as a plain number.

Hi! What's the reported TLR7 LEC for CCCC[C@@H](CCO)Nc1nc(N)nc2ccn(Cc3ccccc3)c12 on human TLR7 (Homo sapiens, UniProt Q9NYK1)?
0.005

Please give the result for CCCCNc1nc(N)nc2ccn(Cc3ccccc3Cl)c12 too.
0.80

Please give the result for COCCNc1nc(N)nc2ccn(CC(=O)N(C)C)c12 too.
4.88

Please give the result for COCCNc1nc(N)nc2ccn(Cc3cc(OC4CCOC4)c(OC)cn3)c12 (stereo not shown) too.
12.5

Please give the result for CCCCNc1nc(N)nc2ccn(Cc3ccc(F)c(Cl)c3)c12 too.
0.89

Please give the result for CCCC(C)Nc1nc(N)nc2ccn(Cc3ccccc3OC)c12 (stereo not shown) too.
0.004

Please give the result for CCC[C@@H](CCO)Nc1nc(N)nc2ccn(Cc3ccncc3)c12 too.
0.17

Please give the result for Cc1cc(CNc2nc(N)nc3ccn(Cc4ncccn4)c23)no1 too.
0.14

Please give the result for CCC[C@@H](CO)Nc1nc(N)nc2ccn(Cc3ccccn3)c12 too.
0.48

Please give the result for CC(CNc1nc(N)nc2ccn(Cc3ccccc3)c12)C1CC1 (stereo not shown) too.
1.51

Please give the result for Cn1cnc(CNc2nc(N)nc3ccn(Cc4ccccn4)c23)c1 too.
7.62

Please give the result for CCCCNc1nc(N)nc2ccn(Cc3ccccc3F)c12 too.
0.11

Please give the result for CCC[C@@H](CCO)Nc1nc(N)nc2ccn(CC3CCC3)c12 too.
0.07

Please give the result for COCCn1ccc2nc(N)nc(NCc3cc(C)on3)c21 too.
0.342

Please give the result for Cc1nc(CNc2nc(N)nc3ccn(Cc4ccccn4)c23)c(C)o1 too.
8.67

All values here come from patent US11220504B2.
